EXPERIMENTAL PROTOCOL: A549 cell viability effects, profiling panel, calcein-AM fluorescence, 48 h, basal (AID 1162); note: test concentration not given here
STATED CONDITIONS: higher = more signal
Here, each record is paired with measured z-score data.
Keep the answer to the number alone.

| COMPOUND | z-score |
| --- | --- |
| O=C1O[C@@H](c2ccccc2)[C@@H](c2ccccc2)N2[C@@H](c3ccc(OCCO)cc3)[C@]3(C(=O)Nc4ccc(C#CC5=CCCCC5)cc43)[C@@H](C(=O)Nc3nc4ccccc4s3)[C@H]12 | 0.583 |

Data request, read-out z-score, for COC(=O)C1(CC(C)C)C=C2C(=C(C)C(=O)C2C)CN1 (configuration not stated) -1.23

Now the compound CCN1C(=O)C2CC(=O)C3C(CN(S(=O)(=O)c4ccc(C)cc4)C3c3ccc(C)cc3)C2C1=O (configuration not stated) 0.159

One more compound: COC(=O)C1=CC(CCCO)=CC(c2ccc(CN3CCCC3)cc2)N(C)C=C1C(=O)OC (configuration not stated) 0.71

And COc1ccc(C(=O)Nc2ccc(CN3C(=O)[C@@]4(O[C@@H](CC(=O)N(CCO)Cc5ccccc5)[C@H]([Si](C)(C)c5ccc(OC)cc5)[C@H]4C)c4ccccc43)cc2)cc1 ? -0.86

And for C=CC[C@]1(C(=O)NCC(O)CO)N=C(c2ccc(OCCCO)cc2)O[C@H]1c1ccccc1CN=[N+]=[N-] (some centres not stated) ? 0.444

Lookup COc1ccc(C#Cc2ccc3c(c2)[C@]2(C(=O)N3)[C@H](c3ccccc3OCCO)N3[C@H](c4ccccc4)[C@H](c4ccccc4)OC(=O)[C@H]3[C@@H]2C(=O)NC[C@H](O)c2ccccc2)cc1 -1.22
